Source listed as patent US10758534B2.

Each entry below lists one item and its recorded EC30 value.
target: F508del (Homo sapiens, UniProt P13569, DEL508-508); construct: expressed in transfected cells; assay: Protocol 2: FRET membrane potential optical assay (VIPR), identification of correction compounds; format: cell-based; details: F508del CFTR modulator activity; compounds of Table 1; read-out: EC30
Sequence (P13569 with tags, fused parts or gaps DEL508-508): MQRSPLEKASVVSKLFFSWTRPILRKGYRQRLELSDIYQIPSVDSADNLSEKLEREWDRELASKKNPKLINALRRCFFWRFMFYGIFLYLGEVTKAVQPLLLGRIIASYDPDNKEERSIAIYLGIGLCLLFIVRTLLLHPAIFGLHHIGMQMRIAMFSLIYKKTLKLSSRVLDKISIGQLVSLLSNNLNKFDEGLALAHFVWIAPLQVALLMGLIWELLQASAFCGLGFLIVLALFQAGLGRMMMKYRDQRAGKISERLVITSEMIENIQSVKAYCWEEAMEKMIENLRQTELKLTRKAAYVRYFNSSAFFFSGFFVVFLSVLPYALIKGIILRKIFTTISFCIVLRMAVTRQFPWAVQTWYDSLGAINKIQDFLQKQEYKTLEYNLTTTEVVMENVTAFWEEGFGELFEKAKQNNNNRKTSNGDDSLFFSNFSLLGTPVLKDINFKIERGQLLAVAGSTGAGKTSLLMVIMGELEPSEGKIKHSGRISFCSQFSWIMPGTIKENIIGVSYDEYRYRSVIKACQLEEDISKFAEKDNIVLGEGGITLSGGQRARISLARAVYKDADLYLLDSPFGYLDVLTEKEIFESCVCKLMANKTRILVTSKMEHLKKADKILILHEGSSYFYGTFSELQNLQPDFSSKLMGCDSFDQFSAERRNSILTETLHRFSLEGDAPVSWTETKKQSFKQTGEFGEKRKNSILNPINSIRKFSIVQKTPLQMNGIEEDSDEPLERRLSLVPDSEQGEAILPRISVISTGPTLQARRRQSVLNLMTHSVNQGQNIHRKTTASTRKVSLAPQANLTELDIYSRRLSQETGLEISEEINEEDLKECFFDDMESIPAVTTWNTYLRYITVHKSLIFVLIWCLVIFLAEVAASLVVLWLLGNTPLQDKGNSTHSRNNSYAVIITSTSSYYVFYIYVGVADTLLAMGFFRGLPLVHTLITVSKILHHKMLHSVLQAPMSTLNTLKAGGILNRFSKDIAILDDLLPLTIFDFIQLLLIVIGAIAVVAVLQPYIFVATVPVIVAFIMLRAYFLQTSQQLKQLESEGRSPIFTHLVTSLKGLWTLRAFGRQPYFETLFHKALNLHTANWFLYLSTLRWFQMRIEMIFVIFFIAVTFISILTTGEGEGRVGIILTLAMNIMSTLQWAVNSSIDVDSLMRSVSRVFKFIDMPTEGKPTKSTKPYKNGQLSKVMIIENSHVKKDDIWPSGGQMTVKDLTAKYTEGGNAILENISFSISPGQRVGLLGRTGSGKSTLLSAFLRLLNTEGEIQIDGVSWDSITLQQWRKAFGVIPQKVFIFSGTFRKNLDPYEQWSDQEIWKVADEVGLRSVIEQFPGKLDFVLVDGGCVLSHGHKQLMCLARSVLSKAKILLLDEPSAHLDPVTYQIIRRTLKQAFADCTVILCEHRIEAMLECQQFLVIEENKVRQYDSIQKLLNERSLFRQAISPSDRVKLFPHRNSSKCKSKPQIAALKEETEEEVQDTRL

Example molecules with recorded EC30:
CC(C)COc1cc(F)cc(-c2cc(N3C[C@@H](C)CC3(C)C)c(C(=O)NS(=O)(=O)c3cccc(N)n3)cn2)c1 : 3000 to 10000 nM
CC[C@@H](C)Oc1ccn(-c2ccc(C(=O)NS(=O)(=O)c3cccnc3N)c(N3C[C@@H](C)CC3(C)C)n2)n1 : < 3000 nM
CCOc1nn(-c2ccc(C(=O)NS(=O)(=O)c3cccnc3N)c(N3C[C@@H](C)CC3(C)C)n2)cc1C : < 3000 nM

Lab note: next molecule to report on.
Req: Could you share which EC30 value was measured for CC1CN(c2ncccc2C(=O)NS(=O)(=O)c2cccc(Nc3ccc(Cl)cn3)n2)C(C)(C)C1 (stereo not shown) ?
Resp: < 3000 nM
